The reported measurements were obtained from ChEMBL document CHEMBL1149895.

Exercise: for every item that follows, state its recorded IC50.
- Test system: RAW264.7
- TEST_DETAILS: Inhibition of LPS-induced nitric oxide production in mouse RAW264.7 cells assessed as nitrite formation
- Assay type: functional, cell-based
One number for each entry, in µM.

These solved cases illustrate the format of a correct answer.
CO[C@H]1C=C2C=C[C@@H]3[C@H](CC[C@]4(O)C(=O)O[C@@]5(C)[C@H]6C[C@](C)([C@H](C)C(=O)O6)[C@H]6[C@@]3(O)C(=O)O[C@@]654)[C@@]2(C)C(=O)C1    84
C[C@]12C(=O)C[C@H](O)C=C1C=C[C@@H]1[C@@H]2CC[C@]2(O)C(=O)O[C@@]3(C)[C@H]4C[C@]5(C)[C@@H](CO[C@@]16O[C@@]32[C@H]5C6=O)C(=O)O4    64
C[C@]12C(=O)C=CCC1=CC[C@@H]1[C@@H]2CC[C@]2(O)C(=O)O[C@@]3(C)[C@H]4C[C@]5(C)[C@@H](CO[C@@]16O[C@@]32[C@H]5C6=O)C(=O)O4    0.84

Please give IC50 for each item listed below.
1. COc1cc(O)c2c(=O)c(O)c(-c3ccc(OC)c(O)c3)oc2c1
2. C=C1C(=O)O[C@@H]2C[C@@]1(C)[C@@H]1C(=O)[C@]3(O)O[C@]14[C@@]2(C)OC(=O)[C@@]4(O)CC[C@H]1[C@H]3[C@H](O)C=C2CC=CC(=O)[C@@]21C
3. O=c1cc(-c2ccc(O)c(O)c2)oc2cc(O)cc(O)c12
4. C[C@]12CCC(=O)C=C1CC[C@@H]1[C@@H]2[C@@H](O)C[C@@]2(C)[C@H]1CC[C@]2(O)C(=O)CO [HYDROCORTISONE]

Result:
[2.23, 2.57, 7.39, 64.3]
